# PI3Kβ IH % @ 1 uM listing for each entry below
# system-under-test: p110β/p85α (Homo sapiens, UniProt P42338)
# Sequence (P42338 whole entry): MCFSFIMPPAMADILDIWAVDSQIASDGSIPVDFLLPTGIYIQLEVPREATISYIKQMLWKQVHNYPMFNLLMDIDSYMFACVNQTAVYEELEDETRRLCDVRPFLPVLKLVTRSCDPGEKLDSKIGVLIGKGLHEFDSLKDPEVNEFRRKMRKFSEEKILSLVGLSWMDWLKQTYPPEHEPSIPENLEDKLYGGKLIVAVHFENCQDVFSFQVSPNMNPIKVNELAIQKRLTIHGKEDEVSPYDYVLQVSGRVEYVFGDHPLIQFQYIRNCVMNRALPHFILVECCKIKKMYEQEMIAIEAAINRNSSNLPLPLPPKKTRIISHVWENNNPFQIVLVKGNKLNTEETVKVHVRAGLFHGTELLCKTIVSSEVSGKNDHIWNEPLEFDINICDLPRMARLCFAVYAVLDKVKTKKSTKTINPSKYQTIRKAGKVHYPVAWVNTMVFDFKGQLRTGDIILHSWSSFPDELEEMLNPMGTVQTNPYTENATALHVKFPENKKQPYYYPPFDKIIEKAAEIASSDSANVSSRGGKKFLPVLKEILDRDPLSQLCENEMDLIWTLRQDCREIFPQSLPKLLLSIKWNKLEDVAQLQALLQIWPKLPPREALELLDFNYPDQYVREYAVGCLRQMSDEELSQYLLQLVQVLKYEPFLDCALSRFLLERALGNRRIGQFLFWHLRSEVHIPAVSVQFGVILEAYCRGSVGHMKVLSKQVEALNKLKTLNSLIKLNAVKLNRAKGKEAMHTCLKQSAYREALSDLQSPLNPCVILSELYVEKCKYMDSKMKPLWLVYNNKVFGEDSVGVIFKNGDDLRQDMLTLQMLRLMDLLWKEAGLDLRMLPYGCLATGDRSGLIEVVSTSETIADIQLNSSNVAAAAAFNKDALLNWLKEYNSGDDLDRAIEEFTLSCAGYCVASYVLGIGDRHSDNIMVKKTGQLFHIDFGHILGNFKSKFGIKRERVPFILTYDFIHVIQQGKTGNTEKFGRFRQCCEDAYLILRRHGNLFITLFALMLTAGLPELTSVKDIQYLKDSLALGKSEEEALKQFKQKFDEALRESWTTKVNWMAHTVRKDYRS
# Sequence (P27986 2-724 partner): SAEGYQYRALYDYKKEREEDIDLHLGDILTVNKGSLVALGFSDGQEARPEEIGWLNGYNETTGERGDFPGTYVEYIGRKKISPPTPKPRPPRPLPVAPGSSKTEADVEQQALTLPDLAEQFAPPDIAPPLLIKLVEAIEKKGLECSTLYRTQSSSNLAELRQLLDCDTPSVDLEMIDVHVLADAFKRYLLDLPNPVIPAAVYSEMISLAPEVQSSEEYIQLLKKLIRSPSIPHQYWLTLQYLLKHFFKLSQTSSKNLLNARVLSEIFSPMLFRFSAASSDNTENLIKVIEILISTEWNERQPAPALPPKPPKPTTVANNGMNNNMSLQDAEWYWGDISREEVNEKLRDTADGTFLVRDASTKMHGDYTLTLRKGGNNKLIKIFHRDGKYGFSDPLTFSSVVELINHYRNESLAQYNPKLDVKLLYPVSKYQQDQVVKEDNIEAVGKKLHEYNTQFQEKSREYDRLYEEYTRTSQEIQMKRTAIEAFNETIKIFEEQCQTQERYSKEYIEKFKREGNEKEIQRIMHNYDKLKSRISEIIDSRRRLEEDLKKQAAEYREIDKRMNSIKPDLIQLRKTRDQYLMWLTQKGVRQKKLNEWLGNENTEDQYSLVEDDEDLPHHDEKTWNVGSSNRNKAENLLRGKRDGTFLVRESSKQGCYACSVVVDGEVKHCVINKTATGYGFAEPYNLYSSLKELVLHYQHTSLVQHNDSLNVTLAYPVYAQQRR
# protocol-details: Transcreener KINASE Assay, kinase inhibition of p110β/p85α
# Assay type: biochemical
# condition-parameters: 1 uM test compound
Could you give me the number in %? Just the number is fine.

Check out these entries, answers already filled in.
- molecule: "C[C@H]1CN(c2ncnc3[nH]cnc23)C1c1nn2ccc(Cl)c2c(=O)n1-c1ccccc1 (stereo partly shown)"
  PI3Kβ IH % @ 1 uM (%): 37.6
- molecule: "O=c1c2c(Cl)ccn2nc([C@@H]2CCCN2c2ncnc3[nH]cnc23)n1-c1cccc(F)c1"
  PI3Kβ IH % @ 1 uM (%): 54.8
- molecule: "C[C@H]1CN(c2ncnc3[nH]cc(C#N)c23)[C@@H]1c1nn2ccc(Cl)c2c(=O)n1-c1ccccn1"
  PI3Kβ IH % @ 1 uM (%): 78.1

Query :: Provide the documented PI3Kβ IH % @ 1 uM with p110β/p85α (Homo sapiens, UniProt P42338) as the system for CC(=O)c1c[nH]c2ncnc(N[C@@H](C)c3cn4ccc(F)c4c(=O)n3-c3ccccc3)c12
Result :: 7.7

Query :: Provide the documented PI3Kβ IH % @ 1 uM with p110β/p85α (Homo sapiens, UniProt P42338) as the system for N#Cc1c[nH]c2ncnc(N3C[C@@H](F)C[C@H]3c3nn4ccc(Cl)c4c(=O)n3-c3cccc(F)c3)c12
Result :: 85.9

Query :: Provide the documented PI3Kβ IH % @ 1 uM with p110β/p85α (Homo sapiens, UniProt P42338) as the system for CC(=O)c1cnc(N)nc1N1C[C@H](C)C1c1nn2ccc(F)c2c(=O)n1-c1ccc(F)cc1 (stereo partly shown)
Result :: 79.3

Query :: Provide the documented PI3Kβ IH % @ 1 uM with p110β/p85α (Homo sapiens, UniProt P42338) as the system for C/C(=N\O)c1c[nH]c2ncnc(N3CCC[C@H]3c3nn4ccc(Cl)c4c(=O)n3-c3ccccc3)c12
Result :: 92.8

Values compiled from patent US20150307520A1.
